I'd be grateful if you could share measured IC50 for these entries.
# Measured On: NAD-dependent protein deacylase sirtuin-5, mitochondrial (Homo sapiens, UniProt Q9NXA8)
# Sequence (Q9NXA8 whole entry): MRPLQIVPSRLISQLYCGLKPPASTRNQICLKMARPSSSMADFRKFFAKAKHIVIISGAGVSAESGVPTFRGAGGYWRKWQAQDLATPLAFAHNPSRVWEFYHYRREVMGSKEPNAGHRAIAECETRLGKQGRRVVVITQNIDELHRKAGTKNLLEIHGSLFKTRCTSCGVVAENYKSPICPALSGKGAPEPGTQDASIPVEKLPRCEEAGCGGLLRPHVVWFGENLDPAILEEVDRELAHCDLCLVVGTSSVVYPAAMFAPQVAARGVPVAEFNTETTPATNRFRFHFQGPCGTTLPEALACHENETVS
# Experiment: Inhibition of human recombinant N-terminal Strep2-tagged SIRT5 expressed in Escherichia coli BL21 (DE3) using Abz-GVLK(glutaryl)AY(NO2)GV-NH2 as substrate in presence of NAD+ by fluorescence assay
Residues, ends and D or L forms follow the SMILES beside them. *: point of attachment. X35 = O=C(O)[C@@H](CC(=O)*)SCc1ccc(C(F)(F)F)cc1; X63 = O=C(O)[C@@H](CC(=O)*)SCc1ccc(Cl)c(Cl)c1; X30 = COc1ccc(S[C@H](CC(=O)*)C(=O)O)cc1OC; X42 = O=C(CCSc1ccc2ccccc2c1)*; Bz = O=C(c1ccccc1)*

Reported IC50, molecule CC(C)C[C@H](NC(=O)[C@@H](NC(=O)CNC(=O)c1ccccc1)C(C)C)C(=O)N[C@@H](CCCCNC(=O)C[C@@H](SCc1ccc(C(F)(F)F)cc1)C(=O)O)C(=O)N[C@@H](CCC(=O)O)C(=O)N[C@@H](Cc1ccc(O)cc1)C(=O)NCC(=O)N[C@H](C(N)=O)C(C)C (Bz-GVLK(X35)EYGV-NH2) : ____ 2.2 µM

Reported IC50, molecule CC(C)C[C@H](NC(=O)[C@@H](NC(=O)CNC(=O)c1ccccc1)C(C)C)C(=O)N[C@@H](CCCCNC(=O)C[C@@H](SCc1ccc(Cl)c(Cl)c1)C(=O)O)C(=O)N[C@@H](CCC(=O)O)C(=O)N[C@@H](Cc1ccc(O)cc1)C(=O)NCC(=O)N[C@H](C(N)=O)C(C)C (Bz-GVLK(X63)EYGV-NH2) : ____ 0.78 µM

Reported IC50, molecule COc1ccc(S[C@H](CC(=O)NCCCC[C@H](NC(=O)[C@H](CC(C)C)NC(=O)[C@@H](NC(=O)CNC(=O)c2ccccc2)C(C)C)C(=O)N[C@@H](CCC(=O)O)C(=O)N[C@@H](Cc2ccc(O)cc2)C(=O)NCC(=O)N[C@H](C(N)=O)C(C)C)C(=O)O)cc1OC (Bz-GVLK(X30)EYGV-NH2) : ____ 9.08 µM

Reported IC50, molecule CC(C)C[C@H](NC(=O)[C@@H](NC(=O)CNC(=O)c1ccccc1)C(C)C)C(=O)N[C@@H](CCCCNC(=O)CCSc1ccc2ccccc2c1)C(=O)N[C@@H](CCC(=O)O)C(=O)N[C@@H](Cc1ccc(O)cc1)C(=O)NCC(=O)N[C@H](C(N)=O)C(C)C (Bz-GVLK(X42)EYGV-NH2) : ____ > 40 µM

----------
# Measured On: NAD-dependent protein deacylase sirtuin-5, mitochondrial (Homo sapiens, UniProt Q9NXA8)
# Experiment: Inhibition of SIRT5 (unknown origin) using GGQSLK[succ]FGKG as substrate after 30 mins
Measured Attribute: pIC50
Note: pIC50 values are expressed as the negative base-10 logarithm of concentration in M.

Hi! What's the reported pIC50 for O=C1c2c(O)cccc2Cc2cccc(O)c21 [ANTHRALIN] on NAD-dependent protein deacylase sirtuin-5, mitochondrial (Homo sapiens, UniProt Q9NXA8)? 7.00

----------
# Measured On: NAD-dependent protein deacylase sirtuin-5, mitochondrial (Homo sapiens, UniProt Q9NXA8)
# Experiment: Inhibition of human recombinant N-terminal Strep2-tagged SIRT5 expressed in Escherichia coli BL21 (DE3) using Abz-GVLK(glutaryl)AY(NO2)GV-NH2 as substrate in presence of NAD+ by fluorescence assay
Residues, ends and D or L forms follow the SMILES beside them. *: point of attachment. X13 = O=C(O)[C@@H](CC(=O)*)SCc1cccc([N+](=O)[O-])c1; X51 = O=C(O)[C@@H](CC(=O)*)SCc1ccc([N+](=O)[O-])cc1; X17 = O=C(O)[C@@H](CC(=O)*)Sc1cc(Cl)cc(Cl)c1; X22 = COc1ccc(CS[C@H](CC(=O)*)C(=O)O)cc1; X68 = Cc1ccc(S[C@H](CC(=O)*)C(=O)O)cc1C; X70 = O=C(O)[C@H](CC(=O)*)Sc1cccc(Cl)c1; X37 = O=C(O)[C@H](CC(=O)*)SCCCc1ccccc1; X8 = O=C(O)[C@H](CC(=O)*)Sc1ccccc1; X12 = O=C(O)C(CC(=O)*)SCCc1cnccn1; Bz = O=C(c1ccccc1)*
Mark yes only for IC50 values smaller than 1000 nM; exact matches and larger values are no.

Bench note: check whether Cc1ccc(S[C@H](CC(=O)NCCCC[C@H](NC(=O)[C@H](CC(C)C)NC(=O)[C@@H](NC(=O)CNC(=O)c2ccccc2)C(C)C)C(=O)N[C@@H](CCC(=O)O)C(=O)N[C@@H](Cc2ccc(O)cc2)C(=O)NCC(=O)N[C@H](C(N)=O)C(C)C)C(=O)O)cc1C (Bz-GVLK(X68)EYGV-NH2) shows IC50 below 1000 nM no

Bench note: check whether CC(C)C[C@H](NC(=O)[C@@H](NC(=O)CNC(=O)c1ccccc1)C(C)C)C(=O)N[C@@H](CCCCNC(=O)C[C@@H](SCc1cccc([N+](=O)[O-])c1)C(=O)O)C(=O)N[C@@H](CCC(=O)O)C(=O)N[C@@H](Cc1ccc(O)cc1)C(=O)NCC(=O)N[C@H](C(N)=O)C(C)C (Bz-GVLK(X13)EYGV-NH2) shows IC50 below 1000 nM no

Bench note: check whether CC(C)C[C@H](NC(=O)[C@@H](NC(=O)CNC(=O)c1ccccc1)C(C)C)C(=O)N[C@@H](CCCCNC(=O)C[C@@H](SCc1ccc([N+](=O)[O-])cc1)C(=O)O)C(=O)N[C@@H](CCC(=O)O)C(=O)N[C@@H](Cc1ccc(O)cc1)C(=O)NCC(=O)N[C@H](C(N)=O)C(C)C (Bz-GVLK(X51)EYGV-NH2) shows IC50 below 1000 nM no

Bench note: check whether CC(C)C[C@H](NC(=O)[C@@H](NC(=O)CNC(=O)c1ccccc1)C(C)C)C(=O)N[C@@H](CCCCNC(=O)CC(SCCc1cnccn1)C(=O)O)C(=O)N[C@@H](CCC(=O)O)C(=O)N[C@@H](Cc1ccc(O)cc1)C(=O)NCC(=O)N[C@H](C(N)=O)C(C)C (stereo partly specified) (Bz-GVLK(X12)EYGV-NH2) shows IC50 below 1000 nM no

Bench note: check whether CC(C)C[C@H](NC(=O)[C@@H](NC(=O)CNC(=O)c1ccccc1)C(C)C)C(=O)N[C@@H](CCCCNC(=O)C[C@H](SCCCc1ccccc1)C(=O)O)C(=O)N[C@@H](CCC(=O)O)C(=O)N[C@@H](Cc1ccc(O)cc1)C(=O)NCC(=O)N[C@H](C(N)=O)C(C)C (Bz-GVLK(X37)EYGV-NH2) shows IC50 below 1000 nM no

Bench note: check whether CC(C)C[C@H](NC(=O)[C@@H](NC(=O)CNC(=O)c1ccccc1)C(C)C)C(=O)N[C@@H](CCCCNC(=O)C[C@H](Sc1ccccc1)C(=O)O)C(=O)N[C@@H](CCC(=O)O)C(=O)N[C@@H](Cc1ccc(O)cc1)C(=O)NCC(=O)N[C@H](C(N)=O)C(C)C (Bz-GVLK(X8)EYGV-NH2) shows IC50 below 1000 nM yes

Bench note: check whether COc1ccc(CS[C@H](CC(=O)NCCCC[C@H](NC(=O)[C@H](CC(C)C)NC(=O)[C@@H](NC(=O)CNC(=O)c2ccccc2)C(C)C)C(=O)N[C@@H](CCC(=O)O)C(=O)N[C@@H](Cc2ccc(O)cc2)C(=O)NCC(=O)N[C@H](C(N)=O)C(C)C)C(=O)O)cc1 (Bz-GVLK(X22)EYGV-NH2) shows IC50 below 1000 nM no

Bench note: check whether CC(C)C[C@H](NC(=O)[C@@H](NC(=O)CNC(=O)c1ccccc1)C(C)C)C(=O)N[C@@H](CCCCNC(=O)C[C@H](Sc1cccc(Cl)c1)C(=O)O)C(=O)N[C@@H](CCC(=O)O)C(=O)N[C@@H](Cc1ccc(O)cc1)C(=O)NCC(=O)N[C@H](C(N)=O)C(C)C (Bz-GVLK(X70)EYGV-NH2) shows IC50 below 1000 nM yes

Bench note: check whether "O=C(C[C@H](Sc1ccc2ccccc2c1)C(=O)O)NCc1ccccc1" shows IC50 below 1000 nM no

Bench note: check whether CC(C)C[C@H](NC(=O)[C@@H](NC(=O)CNC(=O)c1ccccc1)C(C)C)C(=O)N[C@@H](CCCCNC(=O)C[C@@H](Sc1cc(Cl)cc(Cl)c1)C(=O)O)C(=O)N[C@@H](CCC(=O)O)C(=O)N[C@@H](Cc1ccc(O)cc1)C(=O)NCC(=O)N[C@H](C(N)=O)C(C)C (Bz-GVLK(X17)EYGV-NH2) shows IC50 below 1000 nM yes
